Measured on: GABABR1a/GABABR2 heterodimer (Homo sapiens, UniProt O75899+Q9UBS5)
Construct: membrane preparation
Sequence (Q9UBS5 15-961 limits assumed): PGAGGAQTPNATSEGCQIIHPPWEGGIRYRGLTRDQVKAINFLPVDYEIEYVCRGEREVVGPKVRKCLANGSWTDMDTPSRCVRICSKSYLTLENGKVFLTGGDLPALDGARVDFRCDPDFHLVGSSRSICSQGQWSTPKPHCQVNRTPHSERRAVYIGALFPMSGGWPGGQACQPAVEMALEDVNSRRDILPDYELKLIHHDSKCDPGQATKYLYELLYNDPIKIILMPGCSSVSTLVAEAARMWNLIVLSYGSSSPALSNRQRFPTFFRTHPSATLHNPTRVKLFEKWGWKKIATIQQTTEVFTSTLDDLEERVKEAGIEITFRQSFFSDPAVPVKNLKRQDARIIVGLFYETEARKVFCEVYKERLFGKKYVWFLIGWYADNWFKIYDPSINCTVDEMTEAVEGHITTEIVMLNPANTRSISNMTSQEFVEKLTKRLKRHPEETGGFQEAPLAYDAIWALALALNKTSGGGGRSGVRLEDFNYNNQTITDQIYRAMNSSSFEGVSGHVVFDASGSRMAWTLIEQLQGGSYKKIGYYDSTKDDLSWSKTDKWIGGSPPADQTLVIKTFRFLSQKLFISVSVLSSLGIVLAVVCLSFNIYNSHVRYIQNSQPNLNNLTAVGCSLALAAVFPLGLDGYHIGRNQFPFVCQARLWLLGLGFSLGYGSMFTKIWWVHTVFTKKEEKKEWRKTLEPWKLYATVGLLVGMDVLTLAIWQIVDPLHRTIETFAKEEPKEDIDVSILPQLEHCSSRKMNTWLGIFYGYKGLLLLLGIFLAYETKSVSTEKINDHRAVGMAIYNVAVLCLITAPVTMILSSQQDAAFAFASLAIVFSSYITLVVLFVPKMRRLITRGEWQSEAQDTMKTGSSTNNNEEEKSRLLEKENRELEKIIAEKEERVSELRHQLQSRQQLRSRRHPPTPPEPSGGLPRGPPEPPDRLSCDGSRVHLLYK
Sequence (O75899 42-941): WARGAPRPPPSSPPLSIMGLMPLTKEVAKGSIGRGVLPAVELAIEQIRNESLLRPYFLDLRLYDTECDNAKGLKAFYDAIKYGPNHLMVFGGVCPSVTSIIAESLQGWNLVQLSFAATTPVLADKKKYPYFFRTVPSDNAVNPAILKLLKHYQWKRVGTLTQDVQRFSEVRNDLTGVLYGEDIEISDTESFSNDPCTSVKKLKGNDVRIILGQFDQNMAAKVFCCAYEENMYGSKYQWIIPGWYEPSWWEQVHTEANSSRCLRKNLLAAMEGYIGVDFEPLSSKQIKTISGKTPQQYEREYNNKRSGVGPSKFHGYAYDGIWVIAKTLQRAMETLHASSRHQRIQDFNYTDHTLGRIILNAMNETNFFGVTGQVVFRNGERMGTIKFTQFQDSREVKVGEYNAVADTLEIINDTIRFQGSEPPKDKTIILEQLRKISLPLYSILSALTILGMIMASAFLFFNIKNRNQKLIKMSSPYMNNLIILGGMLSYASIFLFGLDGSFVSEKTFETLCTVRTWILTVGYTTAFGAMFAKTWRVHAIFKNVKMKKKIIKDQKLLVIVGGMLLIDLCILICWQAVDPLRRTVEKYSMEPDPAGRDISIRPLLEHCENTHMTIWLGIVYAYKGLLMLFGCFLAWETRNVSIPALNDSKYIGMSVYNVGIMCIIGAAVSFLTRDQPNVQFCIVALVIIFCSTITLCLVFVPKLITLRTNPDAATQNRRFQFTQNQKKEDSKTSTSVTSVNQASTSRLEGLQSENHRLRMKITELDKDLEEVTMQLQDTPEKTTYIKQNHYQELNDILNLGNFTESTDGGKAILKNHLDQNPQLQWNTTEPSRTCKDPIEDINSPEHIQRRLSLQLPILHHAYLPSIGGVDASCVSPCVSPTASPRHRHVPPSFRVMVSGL
Assay protocol: GTPγS35 radioligand filtration-binding assay for determination of agonist potency
Assay context: membranes of CHO K1 Flp-In cells expressing GABABR1a/GABABR2; 30° C., 1 hour
Label Criterion met when EC50 is strictly below 3000 nM; otherwise label Criterion not met.

Worked set:
Molecule	Category
Cc1nc2ccc(N3CCCCC3)cc2c(-c2ccc(F)cc2)c1C(C)Oc1ccc(S(C)(=O)=O)cc1 (stereo not shown)	Criterion met
Cc1nc2ccc(N3CCCCC3)cc2c(-c2ccc(F)cc2)c1C(C)n1ccccc1=O (stereo not shown)	Criterion not met
Cc1nc2ccc(N3CCCCC3)cc2c(-c2ccc(F)cc2)c1C(C)Oc1ccc(C#N)cc1 (stereo not shown)	Criterion met

Exercise: Strictly below 3000 nM: is that where EC50 of Cc1nc2ccc(N3CCCCC3)cc2c(-c2ccc(F)cc2)c1C(C)Oc1ccccc1C#N (stereo not shown) sits?
Key: Criterion met

Exercise: Strictly below 3000 nM: is that where EC50 of COc1ccc(OC(C)c2c(C)nc3ccc(N4CCCCC4)cc3c2-c2ccc(F)cc2)cc1 (stereo not shown) sits?
Key: Criterion met

Exercise: Strictly below 3000 nM: is that where EC50 of Cc1nc2ccc(N3CCN(C)CC3)cc2c(-c2ccc(F)cc2)c1C(C)Oc1ccccc1C(C)C (stereo not shown) sits?
Key: Criterion not met

Exercise: Strictly below 3000 nM: is that where EC50 of Cc1nc2ccc(N3CCCCC3)cc2c(-c2ccc(F)cc2)c1C(C)Oc1cccc(C#N)c1 (stereo not shown) sits?
Key: Criterion met

Exercise: Strictly below 3000 nM: is that where EC50 of Cc1nc2ccc(N3CCCCC3)cc2c(-c2ccc(F)cc2)c1COc1ccc(Cl)cc1 sits?
Key: Criterion met

Exercise: Strictly below 3000 nM: is that where EC50 of Cc1nc2ccc(N3CCCCC3)cc2c(-c2ccc(F)cc2)c1C(C)Oc1ccc(O)cc1 (stereo not shown) sits?
Key: Criterion met

Exercise: Strictly below 3000 nM: is that where EC50 of Cc1nc2ccc(N3CCN(C)CC3)cc2c(-c2ccc(F)cc2)c1C(C)Oc1ccc(Cl)cc1 (stereo not shown) sits?
Key: Criterion not met

Exercise: Strictly below 3000 nM: is that where EC50 of Cc1nc2ccc(N3CCCCC3)cc2c(-c2ccc(F)cc2)c1C(C)Oc1ccccc1Cl (stereo not shown) sits?
Key: Criterion met

Exercise: Strictly below 3000 nM: is that where EC50 of Cc1nc2ccc(N3CCCCC3)cc2c(-c2ccc(F)cc2)c1C(C)Oc1ccccn1 (stereo not shown) sits?
Key: Criterion met

Exercise: Strictly below 3000 nM: is that where EC50 of Cc1nc2ccc(N3CCCCC3)cc2c(-c2ccc(F)cc2)c1C(C)Oc1ccc(Cl)cc1 (stereo not shown) sits?
Key: Criterion met

Exercise: Strictly below 3000 nM: is that where EC50 of Cc1nc2ccc(N3CCCCC3)cc2c(-c2ccc(F)cc2)c1C(C)Oc1ccccc1C(C)C (stereo not shown) sits?
Key: Criterion met

Exercise: Strictly below 3000 nM: is that where EC50 of Cc1nc2ccc(Br)cc2c(-c2ccc(F)cc2)c1C(C)Oc1ccc(Cl)cc1 (stereo not shown) sits?
Key: Criterion not met

Exercise: Strictly below 3000 nM: is that where EC50 of Cc1nc2ccc(N3CCCCC3)cc2c(-c2ccc(F)cc2)c1C(C)Oc1cccc(N(C)C)c1 (stereo not shown) sits?
Key: Criterion met

Exercise: Strictly below 3000 nM: is that where EC50 of Cc1nc2ccc(N3CCCCC3)cc2c(-c2ccc(F)cc2)c1C(=O)OC(C)(C)C sits?
Key: Criterion met

Exercise: Strictly below 3000 nM: is that where EC50 of Cc1nc2ccc(N3CCCCC3)cc2c(-c2ccc(F)cc2)c1C(C)Oc1cccc(C(N)=O)c1 (stereo not shown) sits?
Key: Criterion not met
